Below, each of the binders is paired with its reported Kd value.
- target.or.test.system: A*02:11
- run.description: SPR
Write the answer as a number in nM, unit excluded.

[
  {
    "binder": "AS170036 VL1VH1-56Y98I108S (scFv) scFv: QSALTQPRSVSGSPGQSVTISCAGTSSDVGSENYVSWYQQHPGKAPKLMIYQVNKRASGVPDRFSGSKSGNTASLTISGLQAEDEADYYCASYRSSDINIVFGGGTKLTVLGGGGSGGGGSGGGGSEVQLVESGGGLVQPGGSLRLSCAASGFTFSSYAMSWVRQAPGKGLEWVSTINSGTYSPYYADSVKGRFTISRDNSKNTLYLQMNSLRAEDTAVYYCAKNFFDGSWFLSPPAMDYWGQGTLVTVSSHHHHHH",
    "Kd [nM]": 160
  },
  {
    "binder": "AS170036 VL1VH1-57M98Q (scFv) scFv: QSALTQPRSVSGSPGQSVTISCAGTSSDVGSENYVSWYQQHPGKAPKLMIYQVNKRASGVPDRFSGSKSGNTASLTISGLQAEDEADYYCASYRSSDQNIVFGGGTKLTVLGGGGSGGGGSGGGGSEVQLVESGGGLVQPGGSLRLSCAASGFTFSSYAMSWVRQAPGKGLEWVSTINSGTGMPYYADSVKGRFTISRDNSKNTLYLQMNSLRAEDTAVYYCAKNFFDGSWFLGPPAMDYWGQGTLVTVSSHHHHHH",
    "Kd [nM]": 360
  },
  {
    "binder": "AS170036 VL1VH1-56Y98Q108S (scFv) scFv: QSALTQPRSVSGSPGQSVTISCAGTSSDVGSENYVSWYQQHPGKAPKLMIYQVNKRASGVPDRFSGSKSGNTASLTISGLQAEDEADYYCASYRSSDQNIVFGGGTKLTVLGGGGSGGGGSGGGGSEVQLVESGGGLVQPGGSLRLSCAASGFTFSSYAMSWVRQAPGKGLEWVSTINSGTYSPYYADSVKGRFTISRDNSKNTLYLQMNSLRAEDTAVYYCAKNFFDGSWFLSPPAMDYWGQGTLVTVSSHHHHHH",
    "Kd [nM]": 290
  }
]

input: // lookup Kd for AS170036 VL1VH1 (scFv) scFv: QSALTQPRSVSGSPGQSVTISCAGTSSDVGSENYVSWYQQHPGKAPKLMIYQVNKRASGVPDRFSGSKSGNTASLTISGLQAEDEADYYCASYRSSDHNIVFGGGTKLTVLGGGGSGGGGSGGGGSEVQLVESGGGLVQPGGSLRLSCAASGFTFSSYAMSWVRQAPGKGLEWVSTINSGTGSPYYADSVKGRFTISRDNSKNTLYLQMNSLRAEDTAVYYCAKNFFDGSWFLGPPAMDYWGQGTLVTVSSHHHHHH
output: 220
